property-measured: melting point

Q. melting point for O=[N+]([O-])c1cccc(Cc2nnn[nH]2)c1 ?
A. 140 °C

Q. Moving on to the next molecule: CCC(C(=O)c1ccc(NS(C)(=O)=O)cc1)c1ccccc1 (stereo not given)
A. 143 to 147 °C

Q. Moving on to the next molecule: COC(=O)c1cc(N=Cc2ccccc2)ccc1O
A. 58 to 59 °C

Q. Moving on to the next molecule: CC(=O)c1cc(OCC(O)COc2ccc(C#N)cc2)ccc1O (stereo not given)
A. 118 to 120 °C

Q. Moving on to the next molecule: Nc1ncnc2c1ncn2C1CC(=CF)C(O)C1O (stereo not given)
A. 167 to 169 °C

====

Listing of recorded melting point by entry.

Field: example entries. Status: answers known.
compound: Cc1noc(NS(=O)(=O)c2cccc(C(F)(F)F)c2)c1Br
melting point: 113 to 115 °C

compound: COc1ccc2c(c1)N(CCNC(C)=O)C(c1ccccc1)CO2 (stereo not given)
melting point: 125 to 126 °C

compound: CCCCc1nc2ccccn2c(=O)c1-c1ccc(N[C@@H]2CCN(C(=O)OC(C)(C)C)C2)cc1C
melting point: 162 to 168 °C

compound: C[C@H](O)Cn1c(=O)c(Oc2ccc(F)cc2F)cc2cnc(NC(C)(C)CO)nc21
melting point: 182 to 184 °C

compound: COc1cc(N)c(Cl)cc1C(=O)NC1CCN(CC2CCN(C(=O)c3ccco3)CC2)CC1
melting point: 179 to 181 °C

compound: CCN([C@H]1CC[C@H](c2ccc3[nH]c(=O)oc3c2)CC1)[C@H](C)CCc1ccccc1
melting point: 139 to 158 °C

compound: Cc1cc(C)n(C)c1C(=O)c1ccc(Cl)cc1
melting point: 94 to 98 °C

compound: CN(SC1(C)CCCC1=O)C(=O)ON=C1SC(C)(C)C(=O)N1C (stereo not given)
melting point: 119 to 121 °C

Q. melting point for CN(C=O)c1c2oc3ccccc3c2nn1C ?
A. 135 to 138 °C

Q. Moving on to the next compound: CCOC(=O)C1=C(C)NC(N)=C(C(=O)OCC)C1c1ccco1 (stereo not given)
A. 183 °C

====

Listing of recorded melting point by entry.

Field: example entries. Status: answers known.
compound: Cc1ccccc1C(=S)NC(=O)Nc1ccc(Cl)cc1
property-measured: melting point
value-observed: 211 °C
--
compound: COC(=O)c1cccn1Cc1ccccc1N
property-measured: melting point
value-observed: 95 to 97 °C
--
compound: O=C(Nc1ccc(I)cc1)OCc1ccccc1
property-measured: melting point
value-observed: 132 to 134 °C
--
compound: CC(C)(C)[Si](C)(C)O[C@@H]1c2sccc2[C@]2(O[Si](C)(C)C(C)(C)C)C[C@H]1OC2=O
property-measured: melting point
value-observed: 133 to 137 °C
--
compound: O=C(O)C1=Cc2cc(OC(F)(F)F)ccc2NC1C(F)(F)F (stereo unspecified)
property-measured: melting point
value-observed: 128 to 129 °C
--
compound: COc1cc(C2C3=C(COC3=O)Nc3ccc4ncsc4c32)ccc1O (stereo unspecified)
property-measured: melting point
value-observed: 296 to 297 °C
--
compound: Cc1cccc(C)c1-n1cnc(OC(C)C(=O)O)n1 (stereo unspecified)
property-measured: melting point
value-observed: 178 to 180 °C
--
compound: Fc1cc(F)c(C(Cl)(Cl)Cl)cc1C(Cl)(Cl)Cl
property-measured: melting point
value-observed: 77 to 79 °C

Q. melting point for Cc1oc(-c2ccccc2)nc1COc1ccc(Cn2cc(/C=C/C(=O)O)c(-c3ccccc3)c2)cc1 ?
A. 154 to 155 °C

Q. Moving on to the next compound: CCOC(=O)c1cn(-c2cc3ccccc3cn2)cn1
A. 161 to 162 °C

Q. Moving on to the next compound: O=C(O)C1=CCN(c2ncccc2F)CC1
A. 119 to 120 °C
